Test system: LXFL 529
Experimental details: NCI tumour cell line growth inhibition, 48 h
The source made the active and inactive calls. Rule as the data show it: active = GI50 up to about 1.1 µM and inactive = higher.
Below: a set of entries, each annotated with reported GI50.

{"Molecule": "O=c1[nH]c(=O)n(C2OC(CO)C(O)C2O)cc1OCc1ccccc1 (centres undefined)", "GI50": "> 80.4 µM (inactive)"}
{"Molecule": "O=CC1CCC=CC1NC(=O)OCc1ccccc1 (centres undefined)", "GI50": "44.5 µM (inactive)"}
{"Molecule": "CCOP(=O)(OCC)C1CCCCOC1=O (centres undefined)", "GI50": "> 100 µM (inactive)"}
{"Molecule": "Cc1cc(N(CCC#N)CCC#N)ccc1/C=C(\\NC(=O)/C=C/c1ccccc1)NC(=O)Nc1ccccc1C", "GI50": "47.6 µM (inactive)"}
{"Molecule": "CCN(CC)CC(C(=O)Nc1c(C)cccc1C)/C(C)=N\\NC(=O)C[N+](C)(C)C (centres undefined)", "GI50": "> 100 µM (inactive)"}
{"Molecule": "CCN(CC)CCCC(C)Nc1ccnc2ccc3nn(C)nc3c12 (centres undefined)", "GI50": "55.5 µM (inactive)"}
{"Molecule": "C[C@]12CCC(=O)C=C1CC[C@@H]1[C@@H]2CC[C@]2(C)C(=O)NC(=O)C[C@@H]12", "GI50": "> 100 µM (inactive)"}
{"Molecule": "CCOc1ccc(NC(=O)C2=C(C)NC(C)=C(C(=O)Nc3ccc(OCC)cc3)C2c2ccc(O)c(OC)c2)cc1", "GI50": "67.3 µM (inactive)"}
{"Molecule": "CC(=O)OC1C(COC(N)=O)OC(n2c(-c3ccc(C)cc3)cc(-c3ccccc3)c(C#N)c2=O)C(OC(C)=O)C1OC(C)=O (centres undefined)", "GI50": "> 100 µM (inactive)"}

Data provenance is ChEMBL document CHEMBL1201862.
